experimental_details: protein stability index of a GFP-peptide fusion (yeast GPS) (PSI 1-4); higher = more stable; sorted into four equal gates, so the index is relative within each strain
condition_parameters: doa10∆
Would you please tag the item 1.0 when its protein stability index is 2 or above, and 0.0 when it is below?

{"columns": ["sequence_text", "assigned_category"],
 "data": [
  ["SNKPIFLFAPELGAINL [SWI1]", 1.0],
  ["AIGYPTLPSVGHTLINN [RPP0]", 1.0],
  ["NLNTDKLKNNASRSQLE [YJL039C/NUP192]", 1.0],
  ["DWVRFLALALGILYMGQ [RPN1]", 0.0]
]}

In: Hello, I need to know if SFTLLNQLSQTNKLLFK [NUT1] has measured protein stability index not below 2. Thanks!
Out: 1.0

---

experimental_details: protein stability index of a GFP-peptide fusion (yeast GPS) (PSI 1-4); higher = more stable; sorted into four equal gates, so the index is relative within each strain
condition_parameters: san1∆
value_kind: protein stability index
When you answer, write just the number.

Here are 4 sequences together with their reported answers.
{"columns": ["sequence_text", "observed_value"],
 "data": [
  ["LAKILARSIDVEKGVNP [ECM29]", 1.4],
  ["PGDVLDKDAFIPKLKPA [SNU114]", 1.2],
  ["SSEQDYSTLKELLEYSD [YCG1]", 3.15],
  ["NLLPKKSAKTAKASQEL [HTA2]", 2.87]
]}

In: For the sequence YPVYTRLRTLCRDSDDH [DIS3] , what protein stability index is on record?
Out: 2.29

In: For the sequence KSIIGKLTAERANLRKY [POP1] , what protein stability index is on record?
Out: 2.8

In: For the sequence STMKENKDLSELVIRLE [YIL149C/MLP2] , what protein stability index is on record?
Out: 3.16

In: For the sequence SLSEGCDILVATPGRLI [PRP28] , what protein stability index is on record?
Out: 3.25

In: For the sequence LATAHIYLSRFLIKASV [SSN8] , what protein stability index is on record?
Out: 1.31

In: For the sequence VYKIYNHVMPLKPVDKL [SIN4] , what protein stability index is on record?
Out: 1.63

In: For the sequence LIEFQPSQGVHYKVPTD [MED6] , what protein stability index is on record?
Out: 2.93

In: For the sequence LLKKKDDPSKVRLLCRS [YLR335W/NUP2] , what protein stability index is on record?
Out: 1.98

In: For the sequence IVLGVKDLQENLLVLRG [RPO21] , what protein stability index is on record?
Out: 2.87

---

experimental_details: protein stability index of a GFP-peptide fusion (yeast GPS) (PSI 1-4); higher = more stable; sorted into four equal gates, so the index is relative within each strain
condition_parameters: san1∆
// protein stability index lookup, one value per entry
When you answer, write just the number.

Here are 2 sequences together with their reported answers.
{"columns": ["sequence_text", "value_kind", "observed_value"],
 "data": [
  ["KEEFIMMVNISVLISIP [PCI8]", "protein stability index", 1.57],
  ["KIHLYEKKLEDYCRILS [YGL172W/NUP49]", "protein stability index", 2.3]
]}

In the following, a different sequence is considered.
In: For the sequence MKIQAGQLGLDDNDVPG [YLR018C/POM34] , what protein stability index is on record?
Out: 2.5

---

experimental_details: protein stability index of a GFP-peptide fusion (yeast GPS) (PSI 1-4); higher = more stable; sorted into four equal gates, so the index is relative within each strain
condition_parameters: san1∆
value_kind: protein stability index
When you answer, write just the number.

Here are 4 sequences together with their reported answers.
{"columns": ["sequence_text", "observed_value"],
 "data": [
  ["DDEEYDYNDVEVNSKKK [BRR2]", 3.32],
  ["SLLLAHFFSKSCSFFAK [NUT1]", 1.61],
  ["PDDEKFTDENTIVLSLN [RPC40]", 3],
  ["VFNDAHVLNKVTLASIL [RPN1]", 2.45]
]}

In: For the sequence STFREWKNLVLKLSQAF [YJR042W/NUP85] , what protein stability index is on record?
Out: 2.64

In: For the sequence IMAKRPFDKKSNSALFR [FAS1] , what protein stability index is on record?
Out: 2.87

In: For the sequence DISATQLPKQLWRNFCR [ITC1] , what protein stability index is on record?
Out: 2.71

In: For the sequence SEDHSFRKVKLRVDEVQ [RPS1B] , what protein stability index is on record?
Out: 2.66

In: For the sequence HPKLIKNKSGKIFVETK [FAS1] , what protein stability index is on record?
Out: 2.47

---

experimental_details: protein stability index of a GFP-peptide fusion (yeast GPS) (PSI 1-4); higher = more stable; sorted into four equal gates, so the index is relative within each strain
condition_parameters: ubr1∆
// protein stability index lookup, one value per entry
When you answer, write just the number.

Here are 2 sequences together with their reported answers.
{"columns": ["sequence_text", "observed_value"],
 "data": [
  ["RVRVTGGGHVSQVYAIR [RPS16A]", 2.76],
  ["RSALEKGSRFISTLQVK [RPB2]", 1.6]
]}

In: For the sequence AITNTGPREDTTRVGGG [RPS5] , what protein stability index is on record?
Out: 3.18

---

// protein stability index lookup, one value per entry
experimental_details: protein stability index of a GFP-peptide fusion (yeast GPS) (PSI 1-4); higher = more stable; sorted into four equal gates, so the index is relative within each strain
condition_parameters: san1∆
When you answer, write just the number.

{"columns": ["sequence_text", "protein stability index"],
 "data": [
  ["LTVFYAIKKFKTEKDGV [SSN3]", 2.42],
  ["IRFVCLSNCLANARDFG [BRR2]", 1.72],
  ["GFIDASCIAVMAGLMHF [RRP45]", 1.85],
  ["LLSQFGIKVLPETCLFV [YML103C/NUP188]", 1.18]
]}

In the following, a different sequence is considered.
In: For the sequence LDERFASRVALNKEKLG [IRR1] , what protein stability index is on record?
Out: 1.57

---

experimental_details: protein stability index of a GFP-peptide fusion (yeast GPS) (PSI 1-4); higher = more stable; sorted into four equal gates, so the index is relative within each strain
condition_parameters: doa10∆
value_kind: protein stability index
When you answer, write just the number.

Here are 4 sequences together with their reported answers.
{"columns": ["sequence_text", "protein stability index"],
 "data": [
  ["LQSIVNEISRNGTMINE [PCI8]", 2.93],
  ["LLEFFELVFSKGVYLIL [YML103C/NUP188]", 2.13],
  ["LTNMMSPMGNAYSMGAQ [PGD1]", 2.34],
  ["ENGLQLSDNAKTLHSQM [RPC34]", 3.11]
]}

In the following, a different sequence is considered.
In: For the sequence FDLVRNIVKQNEGIDLD [SMC2] , what protein stability index is on record?
Out: 3.11

---

// protein stability index lookup, one value per entry
experimental_details: protein stability index of a GFP-peptide fusion (yeast GPS) (PSI 1-4); higher = more stable; sorted into four equal gates, so the index is relative within each strain
condition_parameters: pdr5∆
When you answer, write just the number.

{"columns": ["sequence_text", "protein stability index"],
 "data": [
  ["IKDTANDNDITVKENES [UBP6]", 2.45]
]}

In the following, a different sequence is considered.
In: For the sequence SHSLALNEITNSKVNKL [DSN1] , what protein stability index is on record?
Out: 2.57

---

experimental_details: protein stability index of a GFP-peptide fusion (yeast GPS) (PSI 1-4); higher = more stable; sorted into four equal gates, so the index is relative within each strain
condition_parameters: ubr1∆
Would you please tag the item Criterion met when its protein stability index is 2 or above, and Criterion not met when it is below?

Example entries and their recorded answers appear below.
{"columns": ["sequence_text", "assigned_category"],
 "data": [
  ["SIPNLFPTDLEIFQLFT [SWI1]", "Criterion met"],
  ["SSVFLPSRKDCMEVASA [BRR2]", "Criterion met"],
  ["IEPELFNGYNPEKKEMI [FAS2]", "Criterion met"]
]}

In: Hello, I need to know if LPNLGTPDDDEIDVENH [RPN8] has measured protein stability index not below 2. Thanks!
Out: Criterion not met

In: Hello, I need to know if DSVTTETGKLLSGLAQR [BRN1] has measured protein stability index not below 2. Thanks!
Out: Criterion met

In: Hello, I need to know if GGLKSCDLDFPLRENTN [YDL116W/NUP84] has measured protein stability index not below 2. Thanks!
Out: Criterion met

In: Hello, I need to know if TTKERKKSRLGNSFHLM [PRP8] has measured protein stability index not below 2. Thanks!
Out: Criterion met

In: Hello, I need to know if SKYCEKSLPLLITVMEK [YCS4] has measured protein stability index not below 2. Thanks!
Out: Criterion not met

In: Hello, I need to know if LAAERKVTSTLLEQDTS [PRE9] has measured protein stability index not below 2. Thanks!
Out: Criterion met
